compounds and their reported inhibition
System: PriA–SSB C-terminal tail interaction (Klebsiella pneumoniae)
assay.text: blocks PriA binding to SSB C-terminal tail, primary screen, biochemical, AlphaScreen (AID 1272365);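 further: plate controls were negative control peptide for no effect and reference peptide for full effect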
study.conditions: AlphaScreen SSBct-PriA binding, biotinylated peptide; at 33 µM, stronger effect = higher value
The campaign covered roughly 430,000 compounds. About 2,600 (0.6%) were called active. Only a selection was taken, and actives are over-represented in it overall.
Enter your answer as a number in %; do not include the unit.

Exercise: Dear colleague, I am looking for the recorded inhibition of the following compound: O=C(NCCN1CCOC(c2ccccc2)C1)C1CC1 (centres undefined)
Key: -7

Exercise: Entry `Cc1ccc(C=NNC(=O)c2cccc(S(=O)(=O)Nc3cccc(Cl)c3)c2)o1` has what inhibition?
Key: -6.77

Exercise: Which inhibition is reported for this compound? `Cc1cc(=O)[nH]c(-n2nc(C)c(CCC(=O)Nc3ccc(Cl)cc3)c2C)n1`
Key: -4

Exercise: Which inhibition value is on record for `O=CN1CCN(C(=O)c2ccc(Br)o2)CC1` ?
Key: -5.54

Exercise: Dear colleague, I am looking for the recorded inhibition of the following compound: O=C(NCCCc1ccccc1)C(=O)NCC1OCCN1S(=O)(=O)c1ccccc1 (centres undefined)
Key: -3.21

Exercise: Which inhibition is reported for this compound? `CCn1nccc1C(=O)Nc1ccc(-c2nc3ccccc3o2)cc1`
Key: 83

Exercise: May I ask what inhibition has been recorded for `Cc1cc(C)n(-c2nc(N)cc(=O)[nH]2)n1` ?
Key: 73

Exercise: Any idea what its inhibition is? The compound is `C(#Cc1ccc2noc(-c3ccccc3)c2c1)c1ccccc1`
Key: -6

Exercise: Which value of inhibition has been reported for `O=c1c2cc(-c3cccs3)nn2cnn1Cc1nc(-c2ccc(OCc3ccccc3)cc2)no1` in the records?
Key: -16

Exercise: Report inhibition for `CCOC(=O)c1c(-c2ccc(F)cc2)csc1NC(=O)CSc1n[nH]c(N)n1` please.
Key: 9

Exercise: Report inhibition for `Brc1c(-c2ccccc2)nc2n1CCC2` please.
Key: 57

Exercise: Bench note: what inhibition did `Brc1cccc(-c2nnc3n2CCC3)c1` show?
Key: -16.1

Exercise: I have this compound here, `COc1cc(NC(=O)Cc2c(C)noc2C)ncn1` , and I need its recorded inhibition.
Key: -19

Exercise: What does the record list as inhibition for `O=C(NCCc1ccccc1)c1csc(Nc2ccccc2)n1` ?
Key: 7

Exercise: Consider the compound shown here: `COc1ccc(-c2nc3n(c2Br)CCC3)cc1` What is its recorded inhibition?
Key: 18.6

Exercise: For the compound shown here, `O=C(NCc1ccc2c(c1)OCO2)c1csc(Nc2ccccc2)n1` , give the reported inhibition.
Key: 0

Exercise: Tell me the measured inhibition of COc1cccc(CCNC(=O)C2CS(=O)(=O)CN2C(=O)c2ccccc2)c1 (centres undefined) , please.
Key: -9

Exercise: Report inhibition for `CCC(=O)Nc1ccc(-c2nc3ccccc3o2)cc1` please.
Key: -11

Exercise: So what does the record say about inhibition for `Cc1cc(C)n(-c2nc(O)cc(=O)[nH]2)n1` ?
Key: 5.59

Exercise: What value of measured inhibition is listed for `O=C(COc1ccc(Cl)cc1Cl)NCC(=O)N/N=C\c1cccs1` ?
Key: -6

Exercise: Param item = `Cc1cc(SCC(=O)N2CCCc3ccccc32)n2ncc(-c3ccccc3)c2n1` ; retrieve measured inhibition.
Key: -7

Exercise: Would you mind telling me what inhibition value was observed for `O=C(c1ccc(Br)o1)N1CCC(CSc2ccccn2)CC1` ?
Key: 7

Exercise: Given `O=C(NCc1cncc(-c2cccs2)c1)c1ccc2ncsc2c1` , state its recorded inhibition.
Key: -4

Exercise: Which inhibition reading was recorded for the compound `O=C(O)/C=C\C(=O)NCc1ccc2c(c1)OCO2` ?
Key: -5
